Test system: SF-295 CNS
experiment-notes: NCI-60 one-dose screen, 48 h
particulars: 10 µM unless noted
This is part of a sample that, as a whole, favours compounds with a hit. Of some 83,000 tested, about 20% had one in any assay. Activity calls are given as the source filed them. Rule for the calls: active = growth percent below 10; inactive = the rest.
Select the matching outcome among active, inactive

Would you please look over these solved cases?
• COC(=O)[C@H](Cc1c[nH]c2ccccc12)NC(=O)[C@@H](OC)[C@@H]1Cc2cc3cc(OC4CC(OC5CC(O)C(O)C(C)O5)C(O)C(C)O4)c(C)c(O)c3c(O)c2C(=O)[C@H]1OC1CC(OC2CC(OC3CC(C)(O)C(O)C(C)O3)C(O)C(C)O2)C(O)C(C)O1 (stereo not given in full) = active
• CC12CCC3C(CCC4=CC(=O)CCC43CF)C1CCC2=O (stereo not given) = inactive
• CCOC(=O)[C@@H](C)C[C@H](Cc1ccccc1)NC(=O)c1csc([C@@H](C[C@H](C(C)C)N(C)C(=O)[C@@H](NC(=O)[C@H]2CCCCN2C)C(C)(C)C)OC(C)=O)n1 = active
• CC1[C@H](C)OC(=O)CC(O)CC(O)CC(O)CCC(O)C(O)C[C@]2(O)CC(O)C(C(=O)O)C(CC(OC3O[C@H](C)[C@@H](O)[C@H](N)[C@@H]3O)/C=C/C=C/C=C/C=C/CC/C=C/C=C/[C@H](C)[C@H]1O)O2 (stereo not given in full) = inactive

Attention now shifts to the item below.
INPUT: How was COC(=O)[C@@H](C[C@H](Cc1ccccc1)NC(=O)c1csc([C@@H](C[C@H](C(C)C)N(C)C(=O)[C@@H](NC(=O)[C@H]2CCCCN2C)C(C)C)OC(C)=O)n1)NC(=O)OCc1ccccc1 classified in this test?
OUTPUT: active
